target: F508delCFTR (Homo sapiens, UniProt P13569, DEL508-508); construct: expressed in transfected cells; host or cells: CFBE41o- human lung-derived epithelial cell line, doxycycline-inducible expression; test: Cell Surface Expression-Horse Radish Peroxidase (CSE-HRP) assay in CFBE41o-F508delCFTR-HRP cells; assay type: cell-based; conditions: with co-corrector (2 μM); CFBE41o-F508delCFTR-HRP cells, 18-24 hours at 33° C., luminescence; read-out: EC50 (with co-corrector)
pEC50: −log10 of the molar value.
// label 0 strictly below 6 in pEC50; label 1 otherwise

[
  {
    "compound": "COc1cncc([C@@H]2C[C@]2(C(=O)NS(=O)(=O)c2cccc3nc(C)ccc23)c2cc(C)ccc2OC)c1 (racemic) [Example 41]",
    "groupLabel": "label 0"
  },
  {
    "compound": "COc1ccc(C)cc1[C@@]1(C(=O)NS(=O)(=O)c2cccc3nc(C)ccc23)C[C@H]1c1ccc(C(C)C)nc1OC (racemic) [Example 78]",
    "groupLabel": "label 1"
  },
  {
    "compound": "COc1ccc(C)cc1[C@]1(C(=O)NS(=O)(=O)c2cccc3nc(C)ccc23)C[C@@H]1c1ccccc1C(F)(F)F (single isomer, unassigned) [Example 30]",
    "groupLabel": "label 1"
  },
  {
    "compound": "COc1cncc([C@H]2C[C@@]2(C(=O)NS(=O)(=O)c2cccc3nc(C)ccc23)c2cc(C)ccc2OC)n1 (single isomer, unassigned) [Example 75]",
    "groupLabel": "label 1"
  },
  {
    "compound": "COc1ncc([C@@H]2C[C@]2(C(=O)NS(=O)(=O)c2cccc3nc(C)ccc23)c2cc(C)ccc2OC)cn1 (single isomer, unassigned) [Example 37]",
    "groupLabel": "label 0"
  },
  {
    "compound": "COc1cncc([C@@H]2C[C@]2(C(=O)NS(=O)(=O)c2cccc3nc(C)ccc23)c2cc(C)ccc2OC)c1 (single isomer, unassigned) [Example 51]",
    "groupLabel": "label 0"
  },
  {
    "compound": "COc1ccc(C)cc1[C@@]1(C(=O)NS(=O)(=O)c2cccc3nc(C)ccc23)C[C@H]1c1cncc(F)c1 (single isomer, unassigned) [Example 53]",
    "groupLabel": "label 0"
  }
]

* * *

Target: F508del/F508del CFTR (Homo sapiens, UniProt P13569, DEL508-508)
Construct: cells isolated from CF patients with the homozygous mutation; endogenous in cells; host or cells: primary human bronchial epithelial (hBE) cells from CF patients homozygous for F508del
Sequence (P13569 with tags, fused parts or gaps DEL508-508): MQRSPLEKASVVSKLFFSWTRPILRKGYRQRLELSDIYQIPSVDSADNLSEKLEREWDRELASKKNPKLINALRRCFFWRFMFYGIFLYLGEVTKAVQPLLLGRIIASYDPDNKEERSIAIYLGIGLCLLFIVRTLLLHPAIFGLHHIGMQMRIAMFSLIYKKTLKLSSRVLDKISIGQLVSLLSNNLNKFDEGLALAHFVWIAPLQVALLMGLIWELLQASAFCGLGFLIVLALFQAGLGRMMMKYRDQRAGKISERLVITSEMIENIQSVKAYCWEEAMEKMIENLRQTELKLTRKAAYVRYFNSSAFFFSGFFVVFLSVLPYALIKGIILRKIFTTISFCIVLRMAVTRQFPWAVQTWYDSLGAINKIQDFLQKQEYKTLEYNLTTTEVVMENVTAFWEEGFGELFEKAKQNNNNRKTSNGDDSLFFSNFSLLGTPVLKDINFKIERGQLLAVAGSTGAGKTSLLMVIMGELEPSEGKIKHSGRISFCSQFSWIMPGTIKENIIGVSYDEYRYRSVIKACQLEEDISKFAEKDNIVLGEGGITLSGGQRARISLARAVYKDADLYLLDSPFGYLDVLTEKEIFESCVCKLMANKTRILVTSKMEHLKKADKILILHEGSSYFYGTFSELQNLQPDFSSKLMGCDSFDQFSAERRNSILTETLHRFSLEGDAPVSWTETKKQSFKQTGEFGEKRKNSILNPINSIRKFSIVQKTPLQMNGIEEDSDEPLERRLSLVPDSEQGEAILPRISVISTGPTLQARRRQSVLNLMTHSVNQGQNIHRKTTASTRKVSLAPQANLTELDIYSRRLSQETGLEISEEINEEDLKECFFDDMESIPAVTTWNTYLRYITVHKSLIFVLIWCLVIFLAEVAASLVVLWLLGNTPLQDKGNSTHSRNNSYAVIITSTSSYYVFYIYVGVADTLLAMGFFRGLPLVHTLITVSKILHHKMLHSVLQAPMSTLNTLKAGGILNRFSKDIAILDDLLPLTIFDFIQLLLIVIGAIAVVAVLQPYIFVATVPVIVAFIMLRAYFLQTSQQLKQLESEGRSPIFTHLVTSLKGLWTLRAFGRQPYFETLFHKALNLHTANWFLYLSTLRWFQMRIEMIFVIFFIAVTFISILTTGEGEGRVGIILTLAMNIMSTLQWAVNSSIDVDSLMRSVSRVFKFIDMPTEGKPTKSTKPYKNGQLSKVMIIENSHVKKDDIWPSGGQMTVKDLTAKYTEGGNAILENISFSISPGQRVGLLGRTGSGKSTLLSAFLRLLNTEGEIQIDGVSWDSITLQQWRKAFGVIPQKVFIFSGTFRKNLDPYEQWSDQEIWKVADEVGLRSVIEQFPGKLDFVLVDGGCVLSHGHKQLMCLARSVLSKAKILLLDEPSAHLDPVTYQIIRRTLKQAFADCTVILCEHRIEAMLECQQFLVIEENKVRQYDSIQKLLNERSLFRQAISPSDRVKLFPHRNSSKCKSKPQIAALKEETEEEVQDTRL
Test: Trans-Epithelial Current Clamp (TECC) assay using primary human bronchial epithelial cells
Type: cell-based
Settings: maximum percent activity relative to positive control (co-corrector 0.15 μM + potentiator 0.45 μM = 100%); primary hBE cells F508del/F508del
From the text: A cell-based assay was developed using the primary human bronchial epithelial cells (hBE cells) with F508del/F508del CFTR and other mutations. Primary human bronchial epithelial (hBE) cells from CFTR patients with homozygous F508del/F508del mutation were expanded from 1×10^6 to 250×10^6 cells (Neuberger, T et al., 2011, Methods Mol Biol 741:39-54). […]

[
  {
    "molecule": "COc1ccc(C)cc1[C@@]1(C(=O)NS(=O)(=O)c2cccc3nc(C)ccc23)C[C@H]1c1ccc(C(C)C)nc1OC (single isomer, unassigned) [Example 87]",
    "Emax (% Dual)": 271
  },
  {
    "molecule": "COc1ccc(C)cc1[C@]1(C(=O)NS(=O)(=O)c2cccc3nc(C)ccc23)C[C@@H]1c1ccccc1 (single isomer, unassigned)",
    "Emax (% Dual)": 360
  },
  {
    "molecule": "COc1ccc(C)cc1[C@]1(C(=O)NS(=O)(=O)c2cccc3nc(C)ccc23)C[C@@H]1c1ccc(C(C)C)nn1",
    "Emax (% Dual)": 111
  },
  {
    "molecule": "COc1ncc([C@@H]2C[C@]2(C(=O)NS(=O)(=O)c2cccc3nc(C)ccc23)c2cc(C)ccc2OC)cn1 (racemic) [Example 36]",
    "Emax (% Dual)": 173
  },
  {
    "molecule": "CCOc1cnc([C@H]2C[C@@]2(C(=O)NS(=O)(=O)c2cccc3nc(C)ccc23)c2cc(C)ccc2OC)cn1 (single isomer, unassigned)",
    "Emax (% Dual)": 253
  },
  {
    "molecule": "COc1ccc(C)cc1[C@]1(C(=O)NS(=O)(=O)c2cccc3nc(C)ccc23)C[C@@H]1c1ccccc1C(F)(F)F (single isomer, unassigned) [Example 30]",
    "Emax (% Dual)": 313
  }
]

Reference source: patent US20240043386A1
